Molecular target: wild type PRC2 (wtPRC2) complex (Homo sapiens (Human), UniProt Q15910)
Sequence (Q15910 whole entry): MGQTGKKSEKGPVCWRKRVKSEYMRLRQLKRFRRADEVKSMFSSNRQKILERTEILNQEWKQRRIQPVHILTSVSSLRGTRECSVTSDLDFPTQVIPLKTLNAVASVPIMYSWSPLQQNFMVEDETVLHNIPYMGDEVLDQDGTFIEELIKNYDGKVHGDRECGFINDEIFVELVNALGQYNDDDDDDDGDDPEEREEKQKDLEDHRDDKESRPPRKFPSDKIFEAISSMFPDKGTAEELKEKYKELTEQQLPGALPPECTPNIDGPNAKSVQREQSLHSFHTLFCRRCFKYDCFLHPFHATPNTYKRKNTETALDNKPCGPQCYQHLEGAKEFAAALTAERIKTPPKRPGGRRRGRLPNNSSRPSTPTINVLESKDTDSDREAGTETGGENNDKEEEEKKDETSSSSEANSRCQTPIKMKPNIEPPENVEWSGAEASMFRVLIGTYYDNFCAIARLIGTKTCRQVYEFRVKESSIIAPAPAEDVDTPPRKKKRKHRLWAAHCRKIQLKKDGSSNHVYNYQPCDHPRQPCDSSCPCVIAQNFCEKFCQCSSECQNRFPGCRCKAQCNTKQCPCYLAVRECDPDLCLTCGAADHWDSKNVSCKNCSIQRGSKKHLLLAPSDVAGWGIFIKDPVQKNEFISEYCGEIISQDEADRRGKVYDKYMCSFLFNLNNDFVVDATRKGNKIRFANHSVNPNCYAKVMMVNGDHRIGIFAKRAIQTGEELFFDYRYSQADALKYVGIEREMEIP
Sequence (Q15022 whole entry partner): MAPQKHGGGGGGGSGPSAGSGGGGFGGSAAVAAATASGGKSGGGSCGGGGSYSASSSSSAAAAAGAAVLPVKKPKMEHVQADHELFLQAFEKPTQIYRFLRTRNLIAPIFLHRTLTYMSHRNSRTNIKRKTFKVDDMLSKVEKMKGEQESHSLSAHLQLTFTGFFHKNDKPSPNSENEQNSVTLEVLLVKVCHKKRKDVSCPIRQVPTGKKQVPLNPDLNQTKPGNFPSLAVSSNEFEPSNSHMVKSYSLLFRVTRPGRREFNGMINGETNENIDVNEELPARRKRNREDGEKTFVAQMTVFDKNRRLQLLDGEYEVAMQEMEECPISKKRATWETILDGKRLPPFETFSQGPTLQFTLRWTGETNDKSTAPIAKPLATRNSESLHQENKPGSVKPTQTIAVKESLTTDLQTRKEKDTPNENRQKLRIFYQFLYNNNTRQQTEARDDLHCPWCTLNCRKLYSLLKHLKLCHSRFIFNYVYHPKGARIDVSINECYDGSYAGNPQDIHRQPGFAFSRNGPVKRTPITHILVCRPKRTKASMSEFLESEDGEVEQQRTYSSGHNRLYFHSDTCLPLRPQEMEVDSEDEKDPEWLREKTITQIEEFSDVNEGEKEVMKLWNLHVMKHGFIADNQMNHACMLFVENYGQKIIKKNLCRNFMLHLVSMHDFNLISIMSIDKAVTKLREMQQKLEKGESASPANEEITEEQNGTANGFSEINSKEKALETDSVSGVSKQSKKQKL
Sequence (O75530 whole entry partner): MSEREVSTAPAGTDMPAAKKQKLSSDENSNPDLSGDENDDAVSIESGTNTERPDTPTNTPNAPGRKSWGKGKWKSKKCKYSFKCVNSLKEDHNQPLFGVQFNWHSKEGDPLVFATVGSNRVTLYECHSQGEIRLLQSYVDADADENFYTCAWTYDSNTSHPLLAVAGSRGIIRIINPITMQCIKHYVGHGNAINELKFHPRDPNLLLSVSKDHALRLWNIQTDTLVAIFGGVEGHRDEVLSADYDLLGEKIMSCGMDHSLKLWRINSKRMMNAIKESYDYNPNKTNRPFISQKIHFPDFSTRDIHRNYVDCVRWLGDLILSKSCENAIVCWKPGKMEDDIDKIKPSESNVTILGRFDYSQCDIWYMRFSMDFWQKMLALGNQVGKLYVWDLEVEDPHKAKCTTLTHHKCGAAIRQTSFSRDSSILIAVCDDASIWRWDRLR
Sequence (Q09028 whole entry partner): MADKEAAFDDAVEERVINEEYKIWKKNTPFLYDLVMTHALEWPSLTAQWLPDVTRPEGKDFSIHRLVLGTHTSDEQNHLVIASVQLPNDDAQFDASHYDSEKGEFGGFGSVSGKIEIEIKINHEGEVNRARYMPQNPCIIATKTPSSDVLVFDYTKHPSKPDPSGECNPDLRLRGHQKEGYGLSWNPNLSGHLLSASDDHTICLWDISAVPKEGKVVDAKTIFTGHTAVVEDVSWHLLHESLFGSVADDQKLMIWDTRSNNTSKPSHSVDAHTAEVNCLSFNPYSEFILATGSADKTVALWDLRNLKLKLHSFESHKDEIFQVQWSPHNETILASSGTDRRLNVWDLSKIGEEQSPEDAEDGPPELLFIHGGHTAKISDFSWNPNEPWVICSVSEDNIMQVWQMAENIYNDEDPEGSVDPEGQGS
Sequence (Q6ZN18 whole entry partner): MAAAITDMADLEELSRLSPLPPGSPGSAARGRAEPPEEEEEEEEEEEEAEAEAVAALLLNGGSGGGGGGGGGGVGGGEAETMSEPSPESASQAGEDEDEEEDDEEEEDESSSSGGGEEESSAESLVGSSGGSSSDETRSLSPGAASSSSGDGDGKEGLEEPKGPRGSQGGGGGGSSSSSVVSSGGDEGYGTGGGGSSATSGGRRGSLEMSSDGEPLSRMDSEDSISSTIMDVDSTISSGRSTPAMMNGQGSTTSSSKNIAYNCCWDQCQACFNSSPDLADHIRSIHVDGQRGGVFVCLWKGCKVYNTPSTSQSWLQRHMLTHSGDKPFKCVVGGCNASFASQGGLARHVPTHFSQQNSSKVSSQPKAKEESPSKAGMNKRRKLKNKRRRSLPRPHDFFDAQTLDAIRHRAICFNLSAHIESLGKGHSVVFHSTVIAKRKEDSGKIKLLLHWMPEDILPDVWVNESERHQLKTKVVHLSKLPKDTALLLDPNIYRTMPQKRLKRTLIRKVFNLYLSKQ
Assay: EZH2 LC-MS assay (LC-Qualified)
Format: biochemical
Conditions: (a) LC-Qualified assay
Protocol: Representative compounds of the invention were serially and separately diluted 3-fold in DMSO to obtain twelve concentrations. […] Solutions (6 μL) of 80 nM wild type PRC2 (wtPRC2) complex and 60 μM SAM in reaction buffer (20 mM Tris, pH 8.0, 0.1% BSA, 0.01% Triton, 0.5 mM DTT) were added to the wells that were then incubated with the test compound for 20 min. […]
QUANTITY_NAME: IC50 (µM)

Reference set, count: 2
>  <MOLECULE>
CC(C(=O)N(C)C1COC1)c1cnc(NC[C@H]2CC[C@H](Nc3ccc4ccnc(Cl)c4n3)CC2)nc1 (mixture of isomers)

>  <RESULT>
0.054

$$$$
>  <MOLECULE>
CN1CCN(C(=O)Cc2cnc(NC[C@H]3CC[C@H](Nc4ccc5ccnc(Cl)c5n4)CC3)nc2)CC1

>  <RESULT>
0.057

$$$$

[A] COc1nccc2ccc(N[C@H]3CC[C@H](CNc4ncc(NC(C)=O)cn4)CC3)nc12
[B] CC(CO)Oc1cnc(NC[C@H]2CC[C@H](Nc3ccc4ccnc(Cl)c4n3)CC2)nc1 (stereo partly shown)
QUERY: Hey, between A and B which has a smaller measured IC50? // return label of chosen record
RESULT: B
